system: K24384-001-R-PDC complex spheroids, viability; assay: Anticancer human tumor K24384-001-R-PDC patient-derived pancreatic adenocarcinoma cell line growth inhibition [GQUAD]; details: second compound 1 µM; first compound 0.000999 µM; active compounds read low
metric name: viability, T/C (%)
Answers are plain numbers, in %.

For orientation, consider the following solved cases.
compound	viability, T/C [%]
CCc1c2c(nc3ccc(O)cc13)-c1cc3c(c(=O)n1C2)COC(=O)[C@]3(O)CC + Cc1[nH]c2ccc(F)cc2c1-c1nc2c3cccnc3c3ncccc3c2[nH]1	70.6
Cc1[nH]c2ccccc2c1CCNCc1ccc(/C=C/C(=O)NO)cc1 + CN(C)c1ccc(Nc2c3ccc(NC(=O)CCN4CCCC4)cc3nc3cc(NC(=O)CCN4CCCC4)ccc23)cc1	93.5
CCc1c2c(nc3ccc(O)cc13)-c1cc3c(c(=O)n1C2)COC(=O)[C@]3(O)CC + CN(C)c1ccc(Nc2c3ccc(NC(=O)CCN4CCCC4)cc3nc3cc(NC(=O)CCN4CCCC4)ccc23)cc1	69.8
CC[C@@]1(O)C(=O)OCc2c1cc1n(c2=O)Cc2cc3c(CN(C)C)c(O)ccc3nc2-1 + Cc1[nH]c2ccc(F)cc2c1-c1nc2c3cccnc3c3ncccc3c2[nH]1	95.7

For the next question, use this compound.
Which value of viability, T/C has been reported for Cn1ncnc1[C@H]1c2n[nH]c(=O)c3cc(F)cc(c23)N[C@@H]1c1ccc(F)cc1 + Cc1[nH]c2ccc(F)cc2c1-c1nc2c3cccnc3c3ncccc3c2[nH]1 in the records?
95.3

###

Kindly state viability, T/C for each of the entries shown.
system: K24384-001-R-PDC complex spheroids, viability; assay: Anticancer human tumor K24384-001-R-PDC cell line growth inhibition [GQUAD]; settings: second compound 0.0316 µM; first compound 0.1 µM; active compounds read low;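 further: spheroids exposed to compounds for seven days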
One number for each entry, in %.

For orientation, consider the following solved cases.
molecule	target entity	unit string	recorded measurement
C=CC(=O)N1CCN(c2nc(=O)n(-c3c(C)ccnc3C(C)C)c3nc(-c4c(O)cccc4F)c(F)cc23)C(C)C1 (stereo not drawn) + CN(C)c1ccc(Nc2c3ccc(NC(=O)CCN4CCCC4)cc3nc3cc(NC(=O)CCN4CCCC4)ccc23)cc1	K24384-001-R-PDC complex spheroids, viability	%	93.2
O=c1[nH]cc(F)c(=O)[nH]1 + Cc1cnc(CNC(=O)c2c(=O)c3ccc(N4CCCN(C)CC4)nc3n3c2sc2ccccc23)cn1	K24384-001-R-PDC complex spheroids, viability	%	90.8

For the next question, use this molecule.
Which value of viability, T/C has been reported for C#Cc1c(F)ccc2cc(O)cc(-c3ncc4c(N5CC6CCC(C5)N6)nc(OCC56CCCN5CC(F)C6)nc4c3F)c12 (stereo not drawn) + Cc1cnc(CNC(=O)c2c(=O)c3ccc(N4CCCN(C)CC4)nc3n3c2sc2ccccc23)cn1 in the records?
83.7

###

Kindly state viability, T/C for each of the entries shown.
test system: K24384-001-R-PDC complex spheroids, viability; experiment: Anticancer human tumor K24384-001-R-PDC cell line growth inhibition [GQUAD]; details: second compound 0.1 µM; first compound 0.316 µM; active compounds read low;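 further: spheroids exposed to compounds for seven days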
Answers are plain numbers, in %.

For orientation, consider the following solved cases.
compound	unit string	viability, T/C
Cc1[nH]c2ccccc2c1CCNCc1ccc(/C=C/C(=O)NO)cc1 + Cc1[nH]c2ccc(F)cc2c1-c1nc2c3cccnc3c3ncccc3c2[nH]1	%	7.11
O=c1[nH]cc(F)c(=O)[nH]1 + CN(C)c1ccc(Nc2c3ccc(NC(=O)CCN4CCCC4)cc3nc3cc(NC(=O)CCN4CCCC4)ccc23)cc1	%	66.5
Cn1ncnc1[C@H]1c2n[nH]c(=O)c3cc(F)cc(c23)N[C@@H]1c1ccc(F)cc1 + Cc1[nH]c2ccc(F)cc2c1-c1nc2c3cccnc3c3ncccc3c2[nH]1	%	93.2
CCCS(=O)(=O)Nc1ccc(F)c(C(=O)c2c[nH]c3ncc(-c4ccc(Cl)cc4)cc23)c1F + CN(C)c1ccc(Nc2c3ccc(NC(=O)CCN4CCCC4)cc3nc3cc(NC(=O)CCN4CCCC4)ccc23)cc1	%	113
O=C(c1cc(Cc2n[nH]c(=O)c3ccccc23)ccc1F)N1CCN(C(=O)C2CC2)CC1 + CN(C)c1ccc(Nc2c3ccc(NC(=O)CCN4CCCC4)cc3nc3cc(NC(=O)CCN4CCCC4)ccc23)cc1	%	102
COc1cccc2c1C(=O)c1c(O)c3c(c(O)c1C2=O)CC(O)(C(=O)CO)CC3OC1CC(N)C(O)C(C)O1 (stereo unspecified) + CN(C)c1ccc(Nc2c3ccc(NC(=O)CCN4CCCC4)cc3nc3cc(NC(=O)CCN4CCCC4)ccc23)cc1	%	38.2
CC1COCCN1c1cc(-c2ccnn2C)c2ccnc(-c3ccn[nH]3)c2n1 (stereo unspecified) + Cc1cnc(CNC(=O)c2c(=O)c3ccc(N4CCCN(C)CC4)nc3n3c2sc2ccccc23)cn1	%	34
C=CCn1c(=O)c2cnc(Nc3ccc(N4CCN(C)CC4)cc3)nc2n1-c1cccc(C(C)(C)O)n1 + CN(C)c1ccc(Nc2c3ccc(NC(=O)CCN4CCCC4)cc3nc3cc(NC(=O)CCN4CCCC4)ccc23)cc1	%	47
CC(C)n1c(=O)n(C)c2cnc3cc(F)c(-c4ccc(OCCCN5CCCCC5)nc4)cc3c21 + Cc1cnc(CNC(=O)c2c(=O)c3ccc(N4CCCN(C)CC4)nc3n3c2sc2ccccc23)cn1	%	67.1
C=CCn1c(=O)c2cnc(Nc3ccc(N4CCN(C)CC4)cc3)nc2n1-c1cccc(C(C)(C)O)n1 + Cc1cnc(CNC(=O)c2c(=O)c3ccc(N4CCCN(C)CC4)nc3n3c2sc2ccccc23)cn1	%	51.4

For each listed entry, give its viability, T/C.
1. CC(=O)O[C@H]1C(=O)[C@@]2(C)[C@H]([C@H](OC(=O)c3ccccc3)[C@]3(O)C[C@H](OC(=O)[C@H](O)[C@@H](NC(=O)c4ccccc4)c4ccccc4)C(C)=C1C3(C)C)[C@]1(OC(C)=O)CO[C@@H]1C[C@@H]2O + Cc1[nH]c2ccc(F)cc2c1-c1nc2c3cccnc3c3ncccc3c2[nH]1
2. CC(C)n1c(=O)n(C)c2cnc3cc(F)c(-c4ccc(OCCCN5CCCCC5)nc4)cc3c21 + CN(C)c1ccc(Nc2c3ccc(NC(=O)CCN4CCCC4)cc3nc3cc(NC(=O)CCN4CCCC4)ccc23)cc1
3. Cc1cccc(N(C)C(=O)C2C(O)CCN2c2nc(C)cc(C(F)(F)F)c2C#N)c1 (stereo unspecified) + Cc1cnc(CNC(=O)c2c(=O)c3ccc(N4CCCN(C)CC4)nc3n3c2sc2ccccc23)cn1
4. C=CC(=O)N1CCN(c2nc(=O)n(-c3c(C)ccnc3C(C)C)c3nc(-c4c(O)cccc4F)c(F)cc23)C(C)C1 (stereo unspecified) + CN(C)c1ccc(Nc2c3ccc(NC(=O)CCN4CCCC4)cc3nc3cc(NC(=O)CCN4CCCC4)ccc23)cc1

1. 19.6
2. 121
3. 57.7
4. 112

For each listed entry, give its viability, T/C.
1. Cc1[nH]c2ccccc2c1CCNCc1ccc(/C=C/C(=O)NO)cc1 + CN(C)c1ccc(Nc2c3ccc(NC(=O)CCN4CCCC4)cc3nc3cc(NC(=O)CCN4CCCC4)ccc23)cc1
2. Cc1cccc(N(C)C(=O)C2C(O)CCN2c2nc(C)cc(C(F)(F)F)c2C#N)c1 (stereo unspecified) + Cc1[nH]c2ccc(F)cc2c1-c1nc2c3cccnc3c3ncccc3c2[nH]1

1: 7.07; 2: 103

###

Kindly state viability, T/C for each of the entries shown.
test system: K24384-001-R-PDC complex spheroids, viability; assay: Anticancer human tumor K24384-001-R-PDC cell line growth inhibition [GQUAD]; conditions: second compound 10 µM; first compound 1 µM; active compounds read low;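 further: spheroids exposed to compounds for seven days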
Give bare numbers, in %.

For each listed entry, give its viability, T/C.
1. COc1ncnc(C2CC2)c1-c1ncc2cnn(Cc3ccc(-c4nc(C(F)(F)F)cn4C(C)C)cc3)c2n1 + Cc1cnc(CNC(=O)c2c(=O)c3ccc(N4CCCN(C)CC4)nc3n3c2sc2ccccc23)cn1
2. CC1COCCN1c1cc(-c2ccnn2C)c2ccnc(-c3ccn[nH]3)c2n1 (stereo not drawn) + CN(C)c1ccc(Nc2c3ccc(NC(=O)CCN4CCCC4)cc3nc3cc(NC(=O)CCN4CCCC4)ccc23)cc1
3. Nc1ccn(C2OC(CO)C(O)C2(F)F)c(=O)n1 (stereo not drawn) + Cc1cnc(CNC(=O)c2c(=O)c3ccc(N4CCCN(C)CC4)nc3n3c2sc2ccccc23)cn1

1. 20.8
2. 30.6
3. 19.8

###

System: K24384-001-R-PDC complex spheroids, viability
Test: Anticancer human tumor K24384-001-R-PDC cell line growth inhibition [GQUAD];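 further: spheroids exposed to compounds for seven days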
Settings: second compound 1 µM; first compound 0.1 µM; active compounds read low
Description: DNA G-quadruplex Stabilizer Agents in Combinations in Complex Spheroids A high-throughput screen of multi-cell type tumor spheroids was designed to identify active combinations of DNA G-quadruplex stabilizer agents and targeted small molecules. […] Compounds. […] If the clinical Cmax for an agent had not been determined, the highest concentration tested was 10 microM. […]
Kindly state viability, T/C for each of the entries shown.
Numbers only, in %.

For orientation, consider the following solved cases.
compound	viability, T/C (%)
O=C(c1cc(Cc2n[nH]c(=O)c3ccccc23)ccc1F)N1CCN(C(=O)C2CC2)CC1 + Cc1[nH]c2ccc(F)cc2c1-c1nc2c3cccnc3c3ncccc3c2[nH]1	88
CC1COCCN1c1cc(C2(S(C)(=N)=O)CC2)nc(-c2ccnc3[nH]ccc23)n1 (stereo not drawn) + Cc1cnc(CNC(=O)c2c(=O)c3ccc(N4CCCN(C)CC4)nc3n3c2sc2ccccc23)cn1	45.2

For the next question, use this compound.
Which value of viability, T/C has been reported for CC1COCCN1c1cc(C2(S(C)(=N)=O)CC2)nc(-c2ccnc3[nH]ccc23)n1 (stereo not drawn) + CN(C)c1ccc(Nc2c3ccc(NC(=O)CCN4CCCC4)cc3nc3cc(NC(=O)CCN4CCCC4)ccc23)cc1 in the records?
104
